Origin of values: PubChem BioAssay

assay: CREB reporter modulators under forskolin, primary screen, cell-based, PC12, CRE-LacZ reporter, forskolin-stimulated (AID 1146); conditions: luminescence, 4.5 h, higher = more signal, called active from +8 up or from −8 down;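 also: PC12 cells with 6xCRE LacZ reporter stimulated by forskolin 10 µM; beta-galactosidase reporter signal reflecting CREB driven transcription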
Class membership depends on z-score alone; the intervals are bin 1 = under -0.6, bin 2 = from -0.6 up to -0.1, bin 3 = -0.1 and over

stdin: Class? Entry: Cc1ccc(S[C@]2(C(=O)NCC(F)(F)F)CC(=O)N(C3CCCCC3)[C@@H]2c2ccc(CO)cc2)cc1
stdout: bin 2

stdin: # bin lookup: classify COc1ccc(CCNC(=O)[C@@]2(Sc3ccc(C)cc3)CC(=O)N(C(C)C)[C@@H]2c2ccc(CO)cc2)cc1 by its z-score
stdout: bin 2

---

Catalogue of composite z-score values
target: Torsin-1A-interacting protein 2 (Homo sapiens) (UniProt Q8NFQ8); assay: LULL1 binders on small-molecule microarray, primary screen, cell lysate, human LULL1 lysate, 635/667 nm fluorescence (AID 1092); conditions: hLULL1 lysate binding, 635 nm fluorescence, higher = more signal;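 also: probe is lysate of COS7 cells overexpressing human LULL1; score merges per-feature 667 nm fluorescence with signal-to-noise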
Sequence (Q8NFQ8 whole entry, looked up): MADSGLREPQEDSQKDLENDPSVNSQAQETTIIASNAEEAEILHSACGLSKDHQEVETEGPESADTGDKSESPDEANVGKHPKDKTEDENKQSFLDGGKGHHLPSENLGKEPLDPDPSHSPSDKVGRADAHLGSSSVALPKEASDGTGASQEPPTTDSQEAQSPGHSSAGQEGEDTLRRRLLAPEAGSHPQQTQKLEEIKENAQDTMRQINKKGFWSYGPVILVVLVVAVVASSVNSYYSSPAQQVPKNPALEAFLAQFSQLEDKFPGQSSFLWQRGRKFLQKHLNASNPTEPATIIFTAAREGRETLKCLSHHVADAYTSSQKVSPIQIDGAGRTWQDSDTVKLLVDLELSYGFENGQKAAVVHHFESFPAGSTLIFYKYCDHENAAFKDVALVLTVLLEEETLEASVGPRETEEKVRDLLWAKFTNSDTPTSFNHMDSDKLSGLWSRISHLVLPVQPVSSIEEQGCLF
Give only the figure.

Use these answered entries as a reference point.
COCCOC(=O)N1C(=O)[C@@]2(c3cc(C#CC4=CCCCC4)ccc31)[C@H](C(=O)N1CCc3cc(OC)c(OC)cc3C1)[C@H]1C(=O)O[C@H](c3ccccc3)[C@H](c3ccccc3)N1[C@@H]2c1ccc(O)cc1 :: 2.68
CC(=O)c1ccc(C(O)C2C=CC3C(=O)N(C)C(=O)C3N2NC(=O)OC(C)(C)C)cc1 (centres undefined) :: 3.47
CC(=O)NCCCC[C@@H]1NC(=O)[C@@H]2C[C@H](C(=O)NCCCCCC[N+](C)(C)C)[C@H](c3ccc(O)cc3)N2C1=O :: 1.43
COCCOC(=O)N1C(=O)[C@@]2(c3cc(C#CCC(C(=O)OC)C(=O)OC)ccc31)[C@H](C(=O)N1CCCCCCC1)[C@H]1C(=O)O[C@H](c3ccccc3)[C@H](c3ccccc3)N1[C@@H]2c1ccccc1OCCO :: 2.88
CCCCC(O)C1C=CC2C(=O)NC(=O)C2N1Nc1ccc(Cl)cc1Cl (centres undefined) :: 2.28
COCCOC(=O)N1C(=O)[C@@]2(c3cc(C#CC4(O)CCCCCC4)ccc31)[C@H](C(=O)NC[C@H](O)c1ccccc1)[C@H]1C(=O)O[C@H](c3ccccc3)[C@H](c3ccccc3)N1[C@@H]2c1ccc(O)cc1 :: 2.49
C#CCN(C/C=C/c1ccccc1)[C@H](CO[Si](C)(C)C(C)(C)C)c1ccccc1 :: 0.433
C=CC[C@]1(C(=O)NCCCOC)N=C(c2ccc(OCCCO)cc2)O[C@H]1c1ccccc1 :: 3.29

stdin: Give composite z-score for CCOC(=O)C[C@H]1[C@H](OC(=O)Cc2ccc3c(c2)OCO3)[C@@H](NC(=O)c2ccccc2)c2cc(OCCCO)ccc2N1C(=O)Cc1ccc(OC)cc1 tested on Torsin-1A-interacting protein 2 (Homo sapiens) (UniProt Q8NFQ8).
stdout: 0.837

stdin: Report composite z-score from Torsin-1A-interacting protein 2 (Homo sapiens) (UniProt Q8NFQ8) testing of COc1ccc([Si](C)(C)[C@@H]2[C@@H](CCO)O[C@]3(C(=O)N(Cc4ccccc4)c4ccc(N5C(=O)c6ccccc6Oc6ccccc65)cc43)[C@H]2C)cc1
stdout: 1.21

stdin: Jot down composite z-score (Torsin-1A-interacting protein 2 (Homo sapiens) (UniProt Q8NFQ8)) of C=CCNC(=O)[C@@H]1[C@H]2C(=O)O[C@H](c3ccccc3)[C@H](c3ccccc3)N2[C@H](c2ccccc2OCCO)[C@@]12C(=O)N(C(=O)OCCOC)c1ccc(C#CCCO)cc12 .
stdout: 2.88

stdin: State composite z-score (Torsin-1A-interacting protein 2 (Homo sapiens) (UniProt Q8NFQ8)) of CCOC(=O)C1=CC[C@@H](c2ccc(F)cc2)N(S(=O)(=O)c2ccc(C)cc2)[C@H]1c1ccc([N+](=O)[O-])cc1 .
stdout: 2.5

stdin: For Torsin-1A-interacting protein 2 (Homo sapiens) (UniProt Q8NFQ8), give the measured composite z-score of the entry CCOC(=O)C1=CC[C@@H](c2ccccc2)N(S(=O)(=O)C[Si](C)(C)C)[C@H]1c1ccccc1
stdout: 2.26

stdin: Name the value of composite z-score reported for CN1C(=O)C2C(C1=O)C1C=C(c3ccc(CO)cc3)C2C(c2cccs2)N1C (centres undefined) when tested on Torsin-1A-interacting protein 2 (Homo sapiens) (UniProt Q8NFQ8).
stdout: 0.989
